Data origin, for the record: patent US20220306659A1

Molecular target: EGFR^L858R/T790M/C797S (Homo sapiens, UniProt P00533, C797S/L858R/T790M)
Sequence (P00533 25-1210 T790M/C797S/L858R): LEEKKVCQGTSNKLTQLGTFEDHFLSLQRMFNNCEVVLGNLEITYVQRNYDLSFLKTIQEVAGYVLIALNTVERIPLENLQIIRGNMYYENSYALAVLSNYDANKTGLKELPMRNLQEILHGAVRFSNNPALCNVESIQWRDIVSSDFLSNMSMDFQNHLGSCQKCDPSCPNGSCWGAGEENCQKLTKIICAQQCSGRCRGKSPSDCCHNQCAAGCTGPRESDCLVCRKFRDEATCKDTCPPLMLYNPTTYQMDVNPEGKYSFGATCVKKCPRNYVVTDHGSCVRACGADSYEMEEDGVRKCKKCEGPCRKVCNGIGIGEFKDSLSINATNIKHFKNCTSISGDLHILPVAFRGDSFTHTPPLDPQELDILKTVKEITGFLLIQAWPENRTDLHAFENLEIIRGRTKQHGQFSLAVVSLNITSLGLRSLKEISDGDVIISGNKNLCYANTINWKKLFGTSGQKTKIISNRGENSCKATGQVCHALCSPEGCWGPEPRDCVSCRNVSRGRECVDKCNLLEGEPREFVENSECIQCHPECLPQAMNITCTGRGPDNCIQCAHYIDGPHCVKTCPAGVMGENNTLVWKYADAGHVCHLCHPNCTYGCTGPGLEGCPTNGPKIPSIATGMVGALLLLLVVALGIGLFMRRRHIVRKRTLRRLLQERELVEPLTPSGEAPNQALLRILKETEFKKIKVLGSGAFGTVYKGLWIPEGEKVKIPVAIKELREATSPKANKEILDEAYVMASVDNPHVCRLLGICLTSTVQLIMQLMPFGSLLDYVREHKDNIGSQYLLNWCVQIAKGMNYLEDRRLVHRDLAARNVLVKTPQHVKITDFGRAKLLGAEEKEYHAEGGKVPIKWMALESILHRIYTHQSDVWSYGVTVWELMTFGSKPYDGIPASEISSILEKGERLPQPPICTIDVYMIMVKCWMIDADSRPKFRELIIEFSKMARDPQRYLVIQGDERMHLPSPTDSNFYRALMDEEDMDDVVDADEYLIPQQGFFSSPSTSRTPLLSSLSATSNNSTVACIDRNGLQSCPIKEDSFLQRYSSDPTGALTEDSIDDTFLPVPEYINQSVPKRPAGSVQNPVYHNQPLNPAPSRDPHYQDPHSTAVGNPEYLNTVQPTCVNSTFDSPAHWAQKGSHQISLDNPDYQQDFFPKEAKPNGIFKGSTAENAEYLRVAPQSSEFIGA
Assay: EGFR inhibitory activity assay (TK-substrate-biotin/ATP, 665/615 ratio)
Type: biochemical
Details: kinase inhibition
Experimental Endpoint: IC50

>  <Compound>
COc1cc(N2CCC(N3CCN(CCOCC#Cc4cccc5c4CN(C4CCC(=O)NC4=O)C5=O)CC3)CC2)ccc1Nc1ncc(Cl)c(Nc2ccccc2P(C)(C)=O)n1 (stereo not drawn) [Compound C176]

>  <Target Or Test System>
EGFR^L858R/T790M/C797S (Homo sapiens, UniProt P00533, C797S/L858R/T790M)

>  <IC50>
1 to 100 nM

$$$$
>  <Compound>
COc1cc(N2CCC3(CCN(CCCCC#Cc4cccc5c4CN(C4CCC(=O)NC4=O)C5=O)CC3)CC2)c(C)cc1Nc1ncc(Br)c(Nc2ccc3nccnc3c2P(C)(C)=O)n1 (stereo not drawn) [Compound C187]

>  <Target Or Test System>
EGFR^L858R/T790M/C797S (Homo sapiens, UniProt P00533, C797S/L858R/T790M)

>  <IC50>
1 to 100 nM

$$$$
>  <Compound>
COc1cc(N2CCC(N3CCN(CCCCCCC#Cc4cccc5c4CN(C4CCC(=O)NC4=O)C5=O)CC3)CC2)ccc1Nc1ncc(Cl)c(Nc2ccccc2P(C)(C)=O)n1 (stereo not drawn) [Compound C177]

>  <Target Or Test System>
EGFR^L858R/T790M/C797S (Homo sapiens, UniProt P00533, C797S/L858R/T790M)

>  <IC50>
1 to 100 nM

$$$$
>  <Compound>
COc1cc(N2CCC(N3CCN(CC(=O)NC4CCN(CC(=O)Nc5cccc6c5CN(C5CCC(=O)NC5=O)C6=O)CC4)CC3)CC2)ccc1Nc1ncc(Cl)c(Nc2ccccc2P(C)(C)=O)n1 (stereo not drawn) [Compound C88]

>  <Target Or Test System>
EGFR^L858R/T790M/C797S (Homo sapiens, UniProt P00533, C797S/L858R/T790M)

>  <IC50>
1 to 100 nM

$$$$

**Q:** What value of IC50 on EGFR^L858R/T790M/C797S (Homo sapiens, UniProt P00533, C797S/L858R/T790M) does COc1cc(N2CCC(N3CCN(CC4(COc5cccc6c5C(=O)N(C5CCC(=O)NC5=O)C6=O)CC4)CC3)CC2)ccc1Nc1ncc(Cl)c(Nc2ccccc2P(C)(C)=O)n1 (stereo not drawn) [Compound C106] have?
**A:** 1 to 100 nM

**Q:** Same for COc1cc(N2CCC(N3CCN(CC(=O)NCCNc4cccc5c4C(=O)N(C4CCC(=O)NC4=O)C5=O)CC3)CC2)ccc1Nc1ncc(Cl)c(Nc2ccccc2P(C)(C)=O)n1 (stereo not drawn) [Compound A6]
**A:** 1 to 100 nM

**Q:** Same for COc1cc(N2CCC(N3CCN(CC(=O)N4CCC(OCC(=O)Nc5cccc6c5CN(C5CCC(=O)NC5=O)C6=O)CC4)CC3)CC2)ccc1Nc1ncc(Cl)c(Nc2ccccc2P(C)(C)=O)n1 (stereo not drawn) [Compound C78]
**A:** 1 to 100 nM

**Q:** Same for [2H]C([2H])(CCCCCCOc1cccc2c1C(=O)N(C1CCC(=O)NC1=O)C2=O)N1CCN(C2CCN(c3ccc(Nc4ncc(Cl)c(Nc5ccccc5P(C)(C)=O)n4)c(OC)c3)CC2)CC1 (stereo not drawn) [Compound C164]
**A:** 1 to 100 nM

**Q:** Same for COc1cc(N2CCC(N3CCN(CCCCCCCOc4cccc5c4C(=O)N(C4CCC(=O)NC4=O)C5=O)CC3)CC2)ccc1Nc1ncc(Cl)c(Nc2ccccc2P(C)(C)=O)n1 (stereo not drawn) [Compound A10]
**A:** 1 to 100 nM
